target: CFTR (Homo sapiens); assay: Membrane Potential Dye, Enteroid Assay A; assay type: cell-based; details: Table 9
Sequence (P13569 with tags, fused parts or gaps DEL508-508): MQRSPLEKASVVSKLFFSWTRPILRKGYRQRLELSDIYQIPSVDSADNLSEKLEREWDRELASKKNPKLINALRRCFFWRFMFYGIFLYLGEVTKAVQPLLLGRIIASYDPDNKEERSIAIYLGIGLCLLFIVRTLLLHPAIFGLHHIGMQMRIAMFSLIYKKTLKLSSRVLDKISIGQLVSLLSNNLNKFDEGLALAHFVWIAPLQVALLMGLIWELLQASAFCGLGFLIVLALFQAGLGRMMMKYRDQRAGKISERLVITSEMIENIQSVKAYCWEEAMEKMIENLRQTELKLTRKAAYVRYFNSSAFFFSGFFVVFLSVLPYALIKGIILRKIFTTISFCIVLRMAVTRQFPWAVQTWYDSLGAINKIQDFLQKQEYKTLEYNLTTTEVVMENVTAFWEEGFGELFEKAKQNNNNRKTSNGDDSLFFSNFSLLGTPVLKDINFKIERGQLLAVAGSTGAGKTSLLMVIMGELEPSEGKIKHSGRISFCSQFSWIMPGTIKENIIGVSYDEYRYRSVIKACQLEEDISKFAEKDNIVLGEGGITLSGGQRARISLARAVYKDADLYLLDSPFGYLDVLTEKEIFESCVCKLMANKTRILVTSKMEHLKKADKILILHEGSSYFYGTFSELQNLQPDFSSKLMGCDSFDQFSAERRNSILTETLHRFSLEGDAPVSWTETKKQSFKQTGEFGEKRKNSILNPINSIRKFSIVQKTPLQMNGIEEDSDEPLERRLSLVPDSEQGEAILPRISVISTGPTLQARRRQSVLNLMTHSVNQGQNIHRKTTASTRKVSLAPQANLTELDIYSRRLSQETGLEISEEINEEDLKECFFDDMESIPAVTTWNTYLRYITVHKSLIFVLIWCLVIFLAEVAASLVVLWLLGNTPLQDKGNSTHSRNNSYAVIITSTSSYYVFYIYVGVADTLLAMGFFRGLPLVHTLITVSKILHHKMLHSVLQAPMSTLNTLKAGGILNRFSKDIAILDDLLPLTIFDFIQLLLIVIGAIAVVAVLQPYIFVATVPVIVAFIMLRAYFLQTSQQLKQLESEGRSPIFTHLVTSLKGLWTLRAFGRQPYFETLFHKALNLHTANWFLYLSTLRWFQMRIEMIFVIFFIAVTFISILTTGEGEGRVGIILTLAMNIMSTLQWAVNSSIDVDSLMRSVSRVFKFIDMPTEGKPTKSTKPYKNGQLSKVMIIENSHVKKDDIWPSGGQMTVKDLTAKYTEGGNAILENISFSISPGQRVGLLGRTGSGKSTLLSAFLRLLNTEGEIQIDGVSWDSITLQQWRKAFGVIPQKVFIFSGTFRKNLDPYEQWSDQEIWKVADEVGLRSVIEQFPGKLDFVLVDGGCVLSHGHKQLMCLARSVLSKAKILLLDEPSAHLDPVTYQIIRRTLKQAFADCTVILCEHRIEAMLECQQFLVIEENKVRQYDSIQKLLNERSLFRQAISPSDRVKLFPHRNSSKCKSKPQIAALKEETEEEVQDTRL
quantity-measured: Ent. A Max Activity

molecule="Cc1cccc(C)c1-c1cc2nc(n1)NS(=O)(=O)c1cccc(c1)C(=O)N[C@@H](C(CC(C)C)c1ccccc1)CO2 (stereo in doubt) [Compound 181]" target_or_system="CFTR (Homo sapiens)" reported_value="+++ (+++ is >60%)"
molecule=Cc1cccc(C)c1-c1cc2nc(n1)NS(=O)(=O)c1cccc(c1)C(=O)N[C@@H]1CN(Cc3ccccc3)CC[C@H]1O2 target_or_system="CFTR (Homo sapiens)" reported_value="+++ (+++ is >60%)"

Value source: patent US20230382924A1
